molecular target: T7 RNA polymerase (Escherichia phage T7); assay: Capping rate of mRNA transcription initiated by cap analogs (LC-MS); type: biochemical; conditions: relative to 5227
Sequence (P00573 whole entry): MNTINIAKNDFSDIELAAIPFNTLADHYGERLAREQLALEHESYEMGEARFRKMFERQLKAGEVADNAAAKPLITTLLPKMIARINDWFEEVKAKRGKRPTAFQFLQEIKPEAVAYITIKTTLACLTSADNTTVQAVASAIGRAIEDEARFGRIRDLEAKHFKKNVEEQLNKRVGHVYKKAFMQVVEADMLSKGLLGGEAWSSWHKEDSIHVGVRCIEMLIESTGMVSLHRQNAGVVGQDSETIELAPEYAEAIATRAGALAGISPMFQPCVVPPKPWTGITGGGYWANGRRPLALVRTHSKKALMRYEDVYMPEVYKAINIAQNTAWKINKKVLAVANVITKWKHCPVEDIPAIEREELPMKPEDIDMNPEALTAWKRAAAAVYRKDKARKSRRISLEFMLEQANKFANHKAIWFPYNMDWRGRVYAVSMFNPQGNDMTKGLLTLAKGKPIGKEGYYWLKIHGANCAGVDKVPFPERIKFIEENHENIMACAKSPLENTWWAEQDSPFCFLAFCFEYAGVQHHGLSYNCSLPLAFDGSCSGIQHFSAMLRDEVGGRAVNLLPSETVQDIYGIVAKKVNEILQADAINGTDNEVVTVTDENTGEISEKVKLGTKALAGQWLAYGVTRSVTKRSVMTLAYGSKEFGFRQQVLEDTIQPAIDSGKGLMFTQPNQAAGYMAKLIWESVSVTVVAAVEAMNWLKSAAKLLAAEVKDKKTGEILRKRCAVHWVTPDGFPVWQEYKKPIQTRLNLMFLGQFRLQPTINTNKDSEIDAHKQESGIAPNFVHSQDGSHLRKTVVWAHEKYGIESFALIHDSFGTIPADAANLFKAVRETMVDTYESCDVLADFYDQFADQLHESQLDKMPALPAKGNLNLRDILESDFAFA
Listing: Increase relative to 5227 (capping rate) of selected compounds
measured_attribute: Increase relative to 5227 (capping rate) (%)

>>> val("CO[C@@H]1[C@H](OP(=O)(O)OC[C@H]2O[C@@H](n3cnc4c(=O)[nH]c(N)nc43)[C@H](O)[C@@H]2O)[C@@H](COP(=O)(O)OP(=O)(O)OP(=O)(O)OC[C@H]2O[C@@H]([n+]3cn(C)c4c(=O)[nH]c(N)nc43)[C@H](O)[C@@H]2C(F)F)O[C@H]1n1cnc2c(N)ncnc21 [YK-CAP-110]")
35.5
>>> val("CO[C@@H]1[C@H](OP(=O)(O)OC[C@H]2O[C@@H](n3cnc4c(=O)[nH]c(N)nc43)[C@H](O)[C@@H]2O)[C@@H](COP(=O)(O)OP(=O)(O)OP(=O)(O)OC[C@H]2O[C@@H]([n+]3cn(C)c4c(=O)[nH]c(N)nc43)[C@H](O)[C@]2(C)C#N)O[C@H]1n1cnc2c(N)ncnc21 [YK-CAP-105]")
"−3.6"
>>> val("COC1[C@H](n2cnc3c(N)ncnc32)O[C@H](COP(=O)(O)OP(=O)(O)OP(=O)(O)OC[C@@]23COC([C@H]([n+]4cn(C)c5c(=O)[nH]c(N)nc54)O2)[C@H]3O)[C@H]1OP(=O)(O)OCC1OC(n2cnc3c(=O)[nH]c(N)nc32)C(O)C1O (stereo partly shown) [Compound 14, reference compound]")
8.9
>>> val("CO[C@@H]1[C@H](OP(=O)(O)OC[C@H]2O[C@@H](n3cnc4c(=O)[nH]c(N)nc43)[C@H](O)[C@@H]2O)[C@@H](COP(=O)(O)OP(=O)(O)OP(=O)(O)OC[C@H]2O[C@@H](C[n+]3cn(C)c4c(=O)[nH]c(N)nc43)[C@H](O)[C@@H]2O)O[C@H]1n1cnc2c(N)ncnc21 [YK-CAP-103]")
"−1.1"
>>> val("CO[C@@H]1[C@H](OP(=O)(O)OC[C@H]2O[C@@H](n3cnc4c(=O)[nH]c(N)nc43)[C@H](O)[C@@H]2O)[C@@H](COP(=O)(O)OP(=O)(O)OP(=O)(O)OC[C@H]2O[C@@H]([n+]3cn(C)c4c(=O)[nH]c(N)nc43)[C@H](O)[C@@H]2C(C)NC(C)=O)O[C@H]1n1cnc2c(N)ncnc21 (stereo partly shown) [YK-CAP-108]")
33.2
>>> val("CO[C@@H]1[C@H](OP(=O)(O)OC[C@H]2O[C@@H](n3cnc4c(=O)[nH]c(N)nc43)[C@H](O)[C@@H]2O)[C@@H](COP(=O)(O)OP(=O)(O)OP(=O)(O)OC[C@H]2OC([n+]3cn(C)c4c(=O)[nH]c(N)nc43)[C@H](NC(C)=O)[C@@H](O)[C@@H]2O)O[C@H]1n1cnc2c(N)ncnc21 (stereo partly shown) [YK-CAP-102]")
"−58.0"
>>> val("CO[C@@H]1[C@H](OP(=O)(O)OC[C@H]2O[C@@H](n3cnc4c(=O)[nH]c(N)nc43)[C@H](O)[C@@H]2O)[C@@H](COP(=O)(O)OP(=O)(O)OP(=O)(O)OC[C@@]2(CF)O[C@@H]([n+]3cn(C)c4c(=O)[nH]c(N)nc43)[C@H](O)[C@@H]2O)O[C@H]1n1cnc2c(N)ncnc21 [YK-CAP-118]")
35.2
